Experiment: Vero E6 cell cytotoxicity, dose response, cytotoxicity control for non-replicating M. tuberculosis project, secondary assay (AID 492998)
Conditions: series mostly up to 20 µM
The whole screen tested about 2,300 compounds, of which about 550 (24%) were called active. The list is a sample of the results. Measured potencies and affinities stand elsewhere.
test readout: outcome

Example entries begin here.
INSERT INTO measurements (molecule, value) VALUES
  ('Cc1[nH]c2ccccc2c1C(=O)C(C)OC(=O)c1ccc([N+](=O)[O-])o1 (stereo unspecified)', 'inactive'),
  ('CCc1ccc(OCC(=O)c2c(O)c3ccccc3oc2=O)cc1', 'inactive'),
  ('CCOC(=O)Cc1csc(NC(=O)COc2ccc3c(c2)CCC3)n1', 'inactive'),
  ('CCCCn1c(=O)c(C(=O)Nc2nnc(C(C)C)s2)c(O)c2ccccc21', 'inactive'),
  ('O=C(CCC1CCCCC1)NCc1cccs1', 'inactive'),
  ('CCCCCCn1c(=O)c(C(=O)Nc2nnc(C)s2)c(O)c2ccccc21', 'inactive'),
  ('Brc1ccc(CSc2nnc(-c3ccco3)o2)cc1', 'inactive'),
  ('CSCCOC(=O)COc1ccc(/C=N/NC(=O)c2c(Cl)cnn2C)cc1', 'inactive'),
  ('COc1ccc([C@@]2(O)c3c(ccc(CC=C(C)C)c3O)NC(=O)[C@@H]2OC)cc1', 'inactive'),
  ('CC(=O)c1cc2c(ccc3ccccc32)oc1=O', 'inactive');

Read the next record carefully.
Q) Which outcome reading was recorded for the molecule COC12C(COC(N)=O)C3=C(C(=O)C(C)=C(N)C3=O)N1CC1C2N1C (stereo unspecified) ?
A) inactive
